The values you see were collected from ChEMBL document CHEMBL1132337.

Biological target: Adenosine receptor A2a (Rattus norvegicus)
Experiment: Displacement of [3H]CGS-21680 from Adenosine A2A receptor of rat striatal membrane at 10e-4 M
measurement label: inhibition (%)

compound: CCOC(=O)C1=C(c2ccccc2)N=C(C)/C(=C(/O)OC[C@H](O)CO)[C@H]1C#Cc1ccccc1
assayed target: Adenosine receptor A2a (Rattus norvegicus)
inhibition (%): 10
--
compound: CCOC(=O)C1=C(c2ccccc2)N=C(C)/C(=C(/O)OC[C@H]2COC(C)(C)O2)[C@H]1C#Cc1ccccc1
assayed target: Adenosine receptor A2a (Rattus norvegicus)
inhibition (%): 10
--
compound: CCOC(=O)C1=C(c2ccccc2)N=C(C)/C(=C(/O)OC[C@H]2COC(C)(C)O2)[C@@H]1C#Cc1ccccc1
assayed target: Adenosine receptor A2a (Rattus norvegicus)
inhibition (%): 10
--
compound: CCO/C(O)=C1\C(C)=NC(c2ccccc2)=C(C(=O)OCc2ccccc2)C1C#Cc1ccccc1 (stereo unspecified)
assayed target: Adenosine receptor A2a (Rattus norvegicus)
inhibition (%): 10
--
compound: CCO/C(O)=C1\C(C)=NC(c2ccccc2)=C(C(=O)OCc2ccccc2)[C@@H]1C#Cc1ccccc1
assayed target: Adenosine receptor A2a (Rattus norvegicus)
inhibition (%): 11
--
compound: CCO/C(O)=C1\C(C)=NC(c2ccccc2)=C(C(=O)OCc2ccccc2)[C@H]1C#Cc1ccccc1
assayed target: Adenosine receptor A2a (Rattus norvegicus)
inhibition (%): 14
